Values were extracted from patent US20080300243A1.

method: Half-life in human liver microsomes (HLM)
Type: in vitro ADME
condition.info: human, human liver microsomes (HLM, HL101), pH 7.4; 1 μM compound, 0.78 mg/mL HLM, 37° C., NADPH
# half-life at 1 μM listing for each entry below

>  <compound>
Cc1cc(C#CC2CCCC2)ccc1C(=O)Nc1ccc2c(c1)OCC(CO)N2 (stereo not drawn)

>  <half-life at 1 μM (min)>
40.2

$$$$
>  <compound>
O=C(Nc1ccc2c(c1)OCC(CO)N2)c1ccc(/C=C/C(F)(F)F)cc1Cl (stereo not drawn)

>  <half-life at 1 μM (min)>
82.2

$$$$
>  <compound>
O=C(Nc1ccc2c(c1)OC[C@H](CO)O2)c1ccc(C#CC2CC2)cc1

>  <half-life at 1 μM (min)>
18.6

$$$$
>  <compound>
O=C(Nc1cccc2cnccc12)c1ccc(C#CC(F)(F)F)cc1

>  <half-life at 1 μM (min)>
1.2

$$$$
>  <compound>
CN1CCCc2ccc(NC(=O)c3ccc(C#CC(C)(C)C)cc3)cc21

>  <half-life at 1 μM (min)>
73.2

$$$$
>  <compound>
C/C(=C\C(F)(F)F)c1ccc(C(=O)Nc2ccc3c(c2)OCCN3)cc1

>  <half-life at 1 μM (min)>
20.4

$$$$
>  <compound>
O=C(Nc1ccc2c(c1)OCC(CO)N2)c1c(F)cc(C#CC2CC2)cc1F (stereo not drawn)

>  <half-life at 1 μM (min)>
103

$$$$
>  <compound>
O=C(Nc1ccc2c(c1)OCCN2)c1ccc(C#CC2CC2)c(OCC2CC2)c1

>  <half-life at 1 μM (min)>
28.8

$$$$
>  <compound>
O=C(Nc1cnc2ccccc2c1)c1ccc(/C=C/C(F)(F)F)cc1

>  <half-life at 1 μM (min)>
103

$$$$
>  <compound>
CC(C)(C)C#Cc1ccc(C(=O)Nc2ccc3c(c2)OC[C@H](CO)N3)c(F)c1

>  <half-life at 1 μM (min)>
74.4

$$$$
>  <compound>
O=C(Nc1ccc2c(c1)OCCN2)c1ccc(/C=C/C(F)(F)F)cc1F

>  <half-life at 1 μM (min)>
93.6

$$$$
>  <compound>
Cc1nc2cc(NC(=O)c3ccc(C#CC(C)(C)C)cc3C)ccc2s1

>  <half-life at 1 μM (min)>
85.8

$$$$
>  <compound>
Cc1cc(/C=C/C(F)(F)F)ccc1C(=O)Nc1cnc2ccccc2c1

>  <half-life at 1 μM (min)>
568

$$$$
>  <compound>
O=C(Nc1ccc2c(c1)OCC(CO)O2)c1ccc(C#CC2CCCC2)cc1 (stereo not drawn)

>  <half-life at 1 μM (min)>
48

$$$$
>  <compound>
O=C(Nc1cccc2cnccc12)c1ccc(/C=C/C(F)(F)F)cc1

>  <half-life at 1 μM (min)>
29.4

$$$$
>  <compound>
C/C(=C\c1ccc(C(=O)Nc2cccc3cnccc23)cc1)C(F)(F)F

>  <half-life at 1 μM (min)>
31.8

$$$$
>  <compound>
Cc1cc(C#CC(C)(C)C)ccc1C(=O)Nc1ccc2c(c1)OC[C@@H](CO)N2

>  <half-life at 1 μM (min)>
38.4

$$$$
>  <compound>
O=C(Nc1ccc2c(c1)OCC(CO)N2)c1ccc(/C=C/C(F)(F)F)cc1F (stereo not drawn)

>  <half-life at 1 μM (min)>
70.8

$$$$
